Tested on: Plasmodium falciparum Sir2 (PF13_0152, Sir2A)
Test: Plasmodium falciparum Sir2A binding compounds – biochemical, small-molecule microarray, 635 nm fluorescence, primary screen (AID 1098);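 further: score merges spot fluorescence intensity with its signal-to-noise ratio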
Settings: fluorescence 635 nm, higher = more signal
# label = true (1) if composite z-score >= 1 else false (0)

{"chemicalString": "COc1ccc([Si](C)(C)[C@H]2[C@H](CC(=O)N3CCC[C@H]3CO)O[C@@]3(C(=O)N(Cc4ccc(N5C(=O)c6cccc7cccc5c67)cc4)c4ccccc43)[C@@H]2C)cc1", "assignedCategory": "true (1)"}
{"chemicalString": "COC(=O)[C@@]1(Cc2ccccc2)[C@H]2c3cc(C(=O)N4CCCC4)n(CCO)c3C[C@H]2CN1C(=O)c1ccccc1", "assignedCategory": "false (0)"}
{"chemicalString": "COCCOC(=O)N1C(=O)[C@@]2(c3cc(C#Cc4ccc(OC)cc4)ccc31)[C@H](C(N)=O)[C@H]1C(=O)O[C@H](c3ccccc3)[C@H](c3ccccc3)N1[C@@H]2c1ccc(OCCO)cc1", "assignedCategory": "true (1)"}
{"chemicalString": "COc1cccc(C[C@H]2C[C@@H](CO[Si](C(C)C)(C(C)C)C(C)C)N3C(=O)[C@]4(C(C)=O)O[C@]23[C@H]2C(=O)N(C)C(=O)[C@H]24)c1", "assignedCategory": "false (0)"}
{"chemicalString": "[N-]=[N+]=Nc1ccccc1[C@@H]1OC(c2ccc(OCCCO)cc2)=N[C@]1(CCS(=O)(=O)c1ccccc1)C(=O)NCc1ccccc1", "assignedCategory": "true (1)"}
{"chemicalString": "COc1ccc([Si](C)(C)[C@@H]2[C@@H](CCO)O[C@]3(C(=O)N(Cc4ccccc4)c4ccc(N5CCCCC5=O)cc43)[C@H]2C)cc1", "assignedCategory": "false (0)"}
